# System Tested: Mucolipin-1 (Homo sapiens) (UniProt Q9GZU1)
# Sequence (Q9GZU1 whole entry, looked up): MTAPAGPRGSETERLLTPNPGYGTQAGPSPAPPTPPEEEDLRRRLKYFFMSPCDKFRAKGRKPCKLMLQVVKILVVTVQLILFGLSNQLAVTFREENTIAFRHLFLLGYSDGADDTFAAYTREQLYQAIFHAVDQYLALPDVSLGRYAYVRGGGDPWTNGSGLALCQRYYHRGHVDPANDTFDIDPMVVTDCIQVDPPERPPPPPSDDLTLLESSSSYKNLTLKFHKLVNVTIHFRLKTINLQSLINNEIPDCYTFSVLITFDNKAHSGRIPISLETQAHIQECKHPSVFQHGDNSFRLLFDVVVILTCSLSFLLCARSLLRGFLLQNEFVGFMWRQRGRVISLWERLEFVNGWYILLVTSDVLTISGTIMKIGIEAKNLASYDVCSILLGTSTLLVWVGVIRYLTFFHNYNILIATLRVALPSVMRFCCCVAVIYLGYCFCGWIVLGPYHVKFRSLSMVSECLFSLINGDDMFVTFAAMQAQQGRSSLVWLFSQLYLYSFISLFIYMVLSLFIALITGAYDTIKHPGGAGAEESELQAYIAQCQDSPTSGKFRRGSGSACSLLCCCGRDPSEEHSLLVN
# Experimental Details: qHTS for Agonists of the Human Mucolipin Transient Receptor Potential 1 (TRPML1); also: 0% is about no effect
# Condition Context: TRPML1-expressing cells, Ca2+ dye fluorescence, FDSS; hits give high values
# From the text: Mutations of human Mucolipin transient receptor potential 1 (TRPML1) cause type IV mucolipidosis (ML4), a devastating neurodegenerative disease in young children. […] Currently, there is no treatment for ML4. […] TRPML1-DL cells are dissociated from flasks, counted and, brought up to a density of 500,000 cells per mL of media containing a 1X Tet inducer. […]
The campaign covered roughly 410,000 compounds. About 480 (0.12%) were called active. Shown is part of a subset that was picked to be rich in actives.
Readout Type: activation (%)

Molecule	Measurement Unit	Test Result
CCOC1=C2[C@H]([C@H]3C(=O)N(c4ccccc4)C(=O)[C@H]3C1)[C@@H](c1ccccc1)N(S(=O)(=O)c1ccc(C)cc1)[C@H]2c1ccccc1	%	-0.217
O=C(Nc1cccc2cccnc12)C(F)(F)F	%	1.01
COc1ccccc1NC(=O)CSC1=Nc2ccccc2C2=NC(CC(=O)NCc3cccs3)C(=O)N12 (stereo not given)	%	3.51
OCC(O)C(O)C(O)C(O)C=Nc1ccc(/C=C/c2ccnc3ccccc23)cc1 (stereo not given)	%	6.02
Clc1cccc[n+]1CCCC[n+]1ccccc1Cl	%	-0.384

Recorded values, source PubChem BioAssay AID624414.
